All figures here come from PubChem BioAssay AID624037.

molecular target: Muscarinic acetylcholine receptor M5 (Homo sapiens) (UniProt P08912); assay: CHRM5 activators raising intracellular calcium – CHO-K1 cells, Fluo-8 calcium fluorescence, primary screen (AID 624037); conditions: CHO-K1 hM5 cells, at 3 µM, stronger effect = higher value, 0% DMSO wells, 100% maximal acetylcholine response;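 further: signal is peak over basal fluorescence ratio across the kinetic read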
Sequence (P08912 whole entry, looked up): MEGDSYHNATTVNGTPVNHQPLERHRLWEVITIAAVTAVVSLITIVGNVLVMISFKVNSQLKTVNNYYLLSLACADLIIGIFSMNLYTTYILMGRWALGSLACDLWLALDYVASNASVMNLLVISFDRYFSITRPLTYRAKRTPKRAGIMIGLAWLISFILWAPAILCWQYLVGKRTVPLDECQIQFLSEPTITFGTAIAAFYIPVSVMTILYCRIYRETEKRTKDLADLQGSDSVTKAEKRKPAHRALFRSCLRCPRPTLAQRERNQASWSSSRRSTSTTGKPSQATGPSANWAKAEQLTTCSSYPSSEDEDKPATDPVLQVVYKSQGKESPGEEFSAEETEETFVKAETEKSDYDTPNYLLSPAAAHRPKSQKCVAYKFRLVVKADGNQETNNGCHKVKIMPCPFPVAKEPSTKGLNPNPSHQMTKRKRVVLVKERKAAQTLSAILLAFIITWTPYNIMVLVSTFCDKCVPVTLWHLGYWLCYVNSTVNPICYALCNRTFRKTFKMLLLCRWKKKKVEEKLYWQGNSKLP
Screen size: about 360,000 compounds; about 700 (0.19%) were called active. Many of the other results were omitted from the sample, so actives are more common in it than they were.
PARAMETER_MEASURED: activation (%)
Write the answer as a number in %, unit excluded.

In [3]: df
Out[3]:
                                 compound  unit_text  recorded_result
0  Cc1cccc(C)c1NC(=O)CNC(=O)Cc1ccc(Br)cc1          %            -2.94

The observed activation for CCOC(=O)N1CCN(C(=O)C[C@@H]2C[C@@]3(C(=O)OC)CCCCC=C3N(CCC3=CCCCC3)C2=O)CC1 when tested with Muscarinic acetylcholine receptor M5 (Homo sapiens) (UniProt P08912) stands at 24

Item: Cn1nc(N)c2ncc(C(Cl)(Cl)Cl)nc21 | System: Muscarinic acetylcholine receptor M5 (Homo sapiens) (UniProt P08912) | activation: -0.27

Cc1cc(OCC(=O)N(C)c2c(N)n(Cc3ccccc3)c(=O)[nH]c2=O)c(C(C)C)cc1Cl tested on Muscarinic acetylcholine receptor M5 (Homo sapiens) (UniProt P08912) gave activation: -1.72

// assay Muscarinic acetylcholine receptor M5 (Homo sapiens) (UniProt P08912), entry CCOC(=O)[C@]12CCCC=C1N(CCC1=CCCCC1)C(=O)[C@H](CC(=O)N1CCCCC1)C2 , activation value = 2.91

With Muscarinic acetylcholine receptor M5 (Homo sapiens) (UniProt P08912) as the test system, CC1=CC=CN2C1=NC(=O)CC2(C)C(=O)N(CC(=O)NC1CCCC1)c1ccccc1C (stereo not given) showed activation of 0.83

----------
biological target: Muscarinic acetylcholine receptor M5 (Homo sapiens) (UniProt P08912); experiment: CHRM5 activators raising intracellular calcium – CHO-K1 cells, Fluo-8 calcium fluorescence, primary screen (AID 624037); conditions: CHO-K1 hM5 cells, at 3 µM, stronger effect = higher value, 0% DMSO wells, 100% maximal acetylcholine response;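 further: signal is peak over basal fluorescence ratio across the kinetic read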
About 700 (0.19%) of roughly 360,000 compounds were called active. The sample as a whole holds a higher share of actives than the screen did.
Documented activation across a set of compounds
Just the number in %, nothing appended.

# example entries with known answers
>>> print(df.to_string())
                                chem_smiles  unit_text  recorded_result
0       Nc1ccc2nc3c(=O)[nH]c(=S)[nH]c3nc2c1          %             13.3
1      N#CC1(Nc2ccc(-c3ccc(Cl)cc3)cc2)CCCC1          %            -3.18
2                O=C(Cc1c(Cl)cccc1Cl)NC1CC1          %            -4.03
3  O=C(COc1ccc(F)cc1)N(CC1=CCS(=O)(=O)C1)c1ccccc1          %            -3.65

Given the compound CCCCN(C)CCNC(=O)CSCc1ccc(C)cc1 and test system Muscarinic acetylcholine receptor M5 (Homo sapiens) (UniProt P08912), the measured activation is -6.02

activation value, target or system Muscarinic acetylcholine receptor M5 (Homo sapiens) (UniProt P08912), for O=c1[nH]cnc(O)c1C(c1ccc(F)cc1)c1c(O)nc[nH]c1=O : 0.85

Kindly note: Muscarinic acetylcholine receptor M5 (Homo sapiens) (UniProt P08912), Cc1ccc(C(=O)N(CC(=O)NC2CCCC2)c2ccc(F)cc2)s1 , activation value reported: -2.46

The reported Muscarinic acetylcholine receptor M5 (Homo sapiens) (UniProt P08912) activation of CCOc1ccc(NC(=O)N(CC(C)C)CC(C)C)cc1 is -3.79

Param item: CC(=O)NCC(=O)N(Cc1ccco1)C1(C(=O)NC2CCCC2)CCCCC1 ; param system: Muscarinic acetylcholine receptor M5 (Homo sapiens) (UniProt P08912); output activation: -0.72
